I'd be grateful if you could share measured pKd for these entries.
Target: GDP-bound KRAS wild-type protein (Homo sapiens)
Sequence (P01116 1-188 isoform P01116-2): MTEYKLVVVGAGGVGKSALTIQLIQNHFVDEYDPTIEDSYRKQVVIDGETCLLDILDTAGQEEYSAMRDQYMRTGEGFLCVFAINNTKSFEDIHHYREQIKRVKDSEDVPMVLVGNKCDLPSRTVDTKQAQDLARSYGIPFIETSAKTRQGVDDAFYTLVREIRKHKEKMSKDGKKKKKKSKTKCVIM
Assay: Binding to KRAS by surface plasmon resonance (SPR), dissociation constant KD
Details: Single Cycle Kinetics
Protocol: Surface plasmon resonance was used to analyze the binding affinity of compounds for KRAS, NRAS, and HRAS. […] The resulting sensorgram was subjected to curve fitting based on a 1:1 binding model on Biacore Insight Evaluation Software or T200 Evaluation Software, and thereby the dissociation constant KD of each compound with respect to KRAS, NRAS, and HRAS was determined. […]
Interpret pKd as the negative base-10 log of the concentration measured in mol/L.

Task item: # input molecule: `CCC[C@H]1C(=O)N[C@@H]([C@@H](C)CC)C(=O)N(C)CC(=O)N(C)[C@H]2C/C=C\CCN(C2=O)[C@@H](Cc2ccc(C)cc2)C(=O)N(C)CC(=O)N[C@@H](CCc2ccc(C(F)(F)F)c(Cl)c2)C(=O)N2CC3(CC3)C[C@H]2C(=O)NC2(CCC2)C(=O)N(C)[C@@H](C(CC)CC)C(=O)N(C)[C@H](C(=O)N(C)C)CC(=O)N1C` ; wanted: its pKd
Reply: 9.32

Task item: Try this molecule next: `CCCO[C@@H]1C[C@H]2C(=O)NC3(CC(C)(C)C3)C(=O)N(C)[C@@H](C3CCCC3)C(=O)N(C)[C@H](C(=O)N(C)CC)CC(=O)N(C)[C@@H](COCC)C(=O)N[C@@H]([C@@H](C)CC)C(=O)N3CCC[C@H]3C(=O)N(C)[C@H]3C/C=C\CCN(C3=O)[C@@H](Cc3ccc(C(F)(F)F)cc3)C(=O)N(C)CC(=O)N[C@@H](CCc3cc(F)c(C(F)(F)F)c(F)c3)C(=O)N2C1`
Reply: 8.96

Task item: And the next one, `CC[C@H](C)[C@@H]1NC(=O)[C@H](CC(C)C)N(C)C(=O)C[C@@H](C(=O)N(C)C)N(C)C(=O)[C@H](C2CCCC2)N(C)C(=O)C2(CCCC2)NC(=O)[C@@H]2CCN2C(=O)[C@H](CCc2cc(F)c(C(F)(F)F)c(F)c2)NC(=O)CN(C)C(=O)[C@H](Cc2ccc(C)cc2)N2CC/C=C(/F)C[C@@H](C2=O)N(C)C(=O)CN(C)C1=O` ?
Reply: 8.59

====

target: GDP-bound KRAS wild-type protein (Homo sapiens); assay: Binding to KRAS by surface plasmon resonance (SPR), dissociation constant KD; details: Single Cycle Kinetics, 1:1 binding model
Give pKd for every item shown.
# pKd is unitless: minus log10 of the molar concentration; print number only

Task item: Quick one: pKd of CCO[C@@H]1C[C@H]2C(=O)NC3(CCC3)C(=O)N(C)[C@@H](C3CCCC3)C(=O)N(C)[C@H](C(=O)N(C)C)CC(=O)N(C)[C@@H](CC3CC3)C(=O)N[C@@H]([C@@H](C)CC)C(=O)N(C)CC(=O)N(C)[C@H]3C/C=C\CCN(C3=O)[C@@H](Cc3ccc(F)cc3)C(=O)N(C)CC(=O)N[C@@H](CCc3cc(F)c(Cl)c(F)c3)C(=O)N2C1 [PP1479] ?
Reply: 9.31

Task item: Here is the next compound: CC[C@H](C)[C@@H]1NC(=O)[C@H](CC)N(C)C(=O)C[C@@H](C(=O)N(C)C)N(C)C(=O)[C@H](C2CCCC2)N(C)C(=O)C2(CCC2)NC(=O)[C@@H]2CCCN2C(=O)[C@H](CCc2cc(F)c(C(F)(F)F)c(F)c2)NC(=O)CN(C)C(=O)[C@H](CC2CCCCC2)N2CC/C=C\C[C@@H](C2=O)N(C)C(=O)CN(C)C1=O [PP1475]
Reply: 9.26

Task item: Follow-up entry: CCC[C@H]1C(=O)N[C@@H]([C@@H](C)CC)C(=O)N(C2CC2)CC(=O)N(C)[C@H]2C/C=C\CCN(C2=O)[C@@H](Cc2ccc(C)cc2)C(=O)N(C)CC(=O)N[C@@H](CCc2ccc(C(F)(F)F)c(OC)c2)C(=O)N2C[C@H](OCC)C[C@H]2C(=O)N(C)C2(CCC2)C(=O)N(C)[C@@H](C(CC)CC)C(=O)N(C)[C@H](C(=O)N(C)C)CC(=O)N1C [PP2325]
Reply: 9.40
